tested on: OVCAR-5 ovarian; assay: NCI tumour cell line growth inhibition, 48 h
property_name: GI50

So what does the record say about GI50 for C[C@]12CCC3c4ccc(O)cc4CCC3C1CC[C@@]2(O)C#Cc1ccc(C#C/C=C\C#Cc2ccccc2N)cc1 (some centres undefined) ?
38.4 µM

# get_value(readout='GI50', item= O[N+]1=CC=CCC1=S.On1ccccc1=S.[Zn] )
1.45 µM

So what's the measured GI50 for this one? CCN(CC)CCOc1ccc(/C=C2\CC3C4CC=C5C[C@@H](N6CCCC6)CC[C@]5(C)C4CC[C@]3(C)[C@H]2OC(C)=O)cc1OC (some centres undefined)
1.39 µM

Please report the recorded GI50 for CN(C)c1ccc2nc3ccc(N)cc3[n+](-c3ccccc3)c2c1 .
13.3 µM

// returns reported GI50 for input Clc1ccc(C2c3ccccc3-c3nccn32)c(Cl)c1 (centres undefined)
14.8 µM

Suppose we examine the compound C1CN1c1nc(N2CC2)nc(N2CC2)n1 ; what GI50 value has been reported?
13.7 µM

Entry O=C(C[Si](CC(=O)c1cccc(C(F)(F)F)c1)CC(=O)c1cccc(C(F)(F)F)c1)c1cccc(C(F)(F)F)c1 : reported GI50 = ?
2.19 µM

Give the measured GI50 of CCOC(=O)C1=C(C)N(c2ccc(OC)cc2)C2(O)C=CC(=O)C3C(=O)N(c4ccccc4)C(=O)C132 (centres undefined) .
4.08 µM

So what's the measured GI50 for this one? CN1CCN(c2ccc3nc(-c4c5cccccc-5[nH]c4=O)[nH]c3c2)CC1
15.9 µM

###

tested on: NCI-H23 lung; test: NCI tumour cell line growth inhibition, 48 h; in the data active = GI50 below about 0.43 µM; inactive = the rest
Field 'call' accepts true = active, false = inactive

Please state the recorded outcome for this molecule: C[C@@H](O)[C@H]1C(=O)N2C(C(=O)O)=C(SCCN=CN)C[C@H]12
false

Please share the test call associated with Cc1c(C(=O)O)n(-c2ccc(Cl)cc2)c2ncnc(N)c12 .
false

Any idea what this test logged for Cc1ccc(-c2cc(C(=O)N3N=C(c4ccc(N)cc4)CC3c3ccc(Cl)cc3)c3ccccc3n2)cc1 (stereo not given) ?
false

Answer briefly: the call reported for Clc1ccc(C2c3ccccc3-c3nccn32)c(Cl)c1 (stereo not given) in this assay.
false

In this assay, the call recorded for COc1cc(O)c2c(=O)c(OC)c(-c3ccc(OC)c(OC)c3)oc2c1.[Co] was what?
false

# fetch the recorded call for COc1cccc(/C=N/Nc2ncnc3c2cnn3-c2cccc(OC)c2)c1 here
false

Call for entry CO[C@H](C(=O)[C@@H](O)[C@@H](C)O)[C@@H]1Cc2cc3cc(O[C@H]4C[C@@H](O[C@H]5C[C@@H](O)[C@H](O)C(C)O5)[C@H](O)C(C)(O)O4)cc(O)c3c(O)c2C(=O)[C@H]1O[C@H]1C[C@@H](O[C@H]2C[C@@H](O[C@H]3C[C@@H](OC)[C@H](O)C(C)O3)[C@@H](O)C(C)O2)[C@H](O)C(C)O1 (stereo not given in full) :
false

Entry Clc1ccc(/C=C2\CCCC3C2=Nc2ccccc2NC3c2ccc(Cl)cc2)cc1 (stereo not given) : call = ?
false

Per the assay record, what outcome was assigned to CCN(CC)c1ccc(/C=C2\SC(=O)C(Nc3nnc(-c4cccnc4SCc4ccccc4)o3)C2=O)cc1 (stereo not given) ?
false

How did this test come out for CCOC(=O)c1cc2c(c3ccsc13)C1(C)CCC3c4ccc(OC)cc4CCC3C1C2 (stereo not given) ?
false

Hey, what did the test say about O=C(C[Si](CC(=O)c1cccc(C(F)(F)F)c1)CC(=O)c1cccc(C(F)(F)F)c1)c1cccc(C(F)(F)F)c1 ?
false

Hi, sorry to bother you, what did the test record for Cc1c(C(N)=O)sc2c1c(=O)n(Cc1ccccc1)c1nnc(SCC(=O)Nc3ccc(Cl)cc3)n21 ?
false

Per the assay record, what outcome was assigned to CC(C)[C@]12O[C@H]1[C@@H]1O[C@]13[C@]1(O[C@H]1C[C@H]1C4=C(CC[C@@]13C)C(=O)OC4)[C@@H]2OC(=O)CN(C)C ?
true

Which outcome was assigned to CC(=O)c1cc2c(c(O)c1C)C(=O)C(=O)c1c(O)cccc1-2 in this test?
true

What did this assay record as the result for COc1ccc2c(c1)C(=O)c1c-2n(CCCNCCO)c(=O)c2ccccc12 ?
true
